FYI, the data here is from ChEMBL document CHEMBL4145497.

System: Escherichia coli
PROCEDURE TEXT: Antibacterial activity against Escherichia coli DH52 after 18 to 24 hrs by CLSI two fold serial dilution method
Type: functional
MEASUREMENT NAME: MIC (µM)

> print(dat)
                                   compound  scale.unit  recorded.result
1  COc1cc(/C=N/NC(N)=S)c2c(c1OCc1ccccc1)CN1CCc3cc4c(cc3C1C2)OCO4 (stereo not drawn)          µM              250
2  COc1cc(/C=N/NC(N)=S)c2c(c1O)CN1CCc3cc4c(cc3C1C2)OCO4 (stereo not drawn)          µM              300
3  COc1cc(/C=N/Nc2nccs2)c2c(c1OCc1ccccc1)CN1CCc3cc4c(cc3C1C2)OCO4 (stereo not drawn)          µM              950
